- Tested on: OVCAR-4 ovarian
- assay-explanation: NCI-60 one-dose screen, 48 h (100 = growth as untreated, 0 = no growth, -100 = all killed)
- test-context: 10 µM unless noted
The panel holds about 83,000 compounds, 20% with a hit somewhere; the sample as a whole holds those more often.
endpoint-label: growth (%)
Answer format: numeric, % implied, no suffix.

The cases that follow already have their growth on record.
COc1ccc(Oc2nc(Nc3ccc(N4CCOCC4)cc3)ncc2NC(=O)Nc2cc(OC)cc(OC)c2)cc1 | 54.5
O=C(NNC(=O)c1nc2cc(F)ccc2n2cccc12)c1cnccn1 | 28.4
O=C1Nc2ccccc2/C1=C/c1cccn1C(=O)c1ccc(Cl)s1 | 15.3
O=S(=O)(Oc1ccc(Br)cc1)c1ccc(Cl)cc1 | 98.9

Request: What does the data say about its growth? Entry: `COc1ccc(/C=C/c2ccc3ccccc3n2)c(OC)c1`
Response: 95.9

Request: What does the data say about its growth? Entry: C=C1CC[C@@H]2[C@](C)(COC(C)=O)[C@H](OC(C)=O)CC[C@@]2(C)[C@@H]1CC(Nc1ccc(S(=O)(=O)NC(C)=O)cc1)C1=CCOC1=O (some centres undefined)
Response: 26.1

----------
- Tested on: UACC-257 melanoma
- assay-explanation: NCI-60 one-dose screen, 48 h
- test-context: 10 µM unless noted
About 83,000 compounds went through this panel and 20% of them were active in at least one assay; those are over-represented in the sample as a whole. Activity calls are given as the source filed them. The calls were made as follows: active = growth percent below 10; inactive = the rest.
The reply should be one of these categories: active, inactive

Example entries begin here.
OCCNCCNC(Cc1ccc(Cl)cc1)c1ccccc1 (centres undefined) | inactive
CS(=O)(=O)c1nnc(-c2ccccc2)s1 | inactive
CCCCCN(CCCCC)CC(O)c1cc(C)c2ccc3cc(C(C)C)ccc3c2c1 (centres undefined) | inactive
C[C@@H]1O[C@@H](O[C@@H]2C[C@H](c3ccc4c(c3O)C(=O)C3=C(C4=O)[C@@]4(O)C(=O)C[C@](C)(O)C[C@@]4(O)C=C3)O[C@H](C)[C@H]2O)CC[C@@H]1O[C@H]1C[C@@H](O)[C@H](O)[C@@H](C)O1 | inactive
COc1ccc(N2CCC(=S)NC2=S)cc1 | inactive
Cc1ccc(S(=O)(=O)N2CCC(=O)c3ccccc32)cc1 | inactive
C=C1CC[C@@H]2[C@](C)(COC(C)=O)[C@H](OC(C)=O)CC[C@@]2(C)[C@@H]1CC(Nc1ccc(S(=O)(=O)NC(C)=O)cc1)C1=CCOC1=O (some centres undefined) | active
CC1=C2[C@@H](CC1)[C@]1(C)O[C@@](C3CCCCC3)(C[C@H]1OC(=O)CO)[C@H]2OC(=O)/C=C/c1ccccc1 | inactive

We next turn to a different compound, shown below.
Request: Write down the call the test reported for this compound. Item: `CCNC(=O)Oc1ccc(/C(=C(/C)Cc2ccc(OC)cc2)c2ccc(OCCN3CCCCC3)cc2)cc1`
Response: inactive

----------
- System: CCRF-CEM leukemia
- assay-explanation: NCI-60 one-dose screen, 48 h
- test-context: 10 µM unless noted
About 83,000 compounds went through this panel and 20% of them were active in at least one assay; those are over-represented in the sample as a whole. Calls of active or inactive are those of the source. The calls were made as follows: active = growth percent below 10; inactive = the rest.
The reply should be one of these categories: yes (1) = active, no (0) = inactive

CN1CCN(C(=O)[C@@]2(C)CC[C@]3(C)CC[C@]4(C)C(=CC[C@@H]5[C@@]6(C)CCC(=O)NC(C)(C)[C@@H]6CC[C@]54C)[C@@H]3C2)CC1 | no (0)
COc1ccc(C2=CC(c3cc(OC)c(OC)c(OC)c3)n3ncnc3N2)cc1 (centres undefined) | no (0)
N#CC1=C(N)Oc2ccc3ccccc3c2C1c1ccc([N+](=O)[O-])cc1 (centres undefined) | no (0)
N#CC1CCc2c(c(-c3ccc4nc(N)sc4c3)nc3ccc4[nH]ncc4c23)C1 (centres undefined) | no (0)

Request: Write down the call the test reported for this molecule. Item: `CCN(CC)c1ccc(CNc2cc(C)nc3ccccc23)cc1`
Response: no (0)

Request: Write down the call the test reported for this molecule. Item: `Cc1ccc(-c2nc(-c3cn(C)c4ncccc34)cs2)cc1`
Response: yes (1)

Request: Write down the call the test reported for this molecule. Item: `CCN(CC)CCCN1C(=O)c2c(c(C)c3c(oc4ccc(OC)cc43)c2C)C1=O`
Response: no (0)

Request: Write down the call the test reported for this molecule. Item: `Nc1[nH]c(=S)nc2oc(-c3ccccc3)c(-c3ccccc3)c12`
Response: no (0)

Request: Write down the call the test reported for this molecule. Item: CN(Cc1ccccc1)c1nc(Cl)c(C2CC(c3ccccc3)=NN2c2ccccc2)s1 (centres undefined)
Response: no (0)

Request: Write down the call the test reported for this molecule. Item: `O=c1c2ccccc2c(=O)c2c1sc1c(=O)c3ccc(O)cc3c(=O)c12`
Response: yes (1)

Request: Write down the call the test reported for this molecule. Item: `S=C(c1ccc2c(c1)OCO2)N1CCN(c2cccc(Cl)c2)CC1`
Response: no (0)

Request: Write down the call the test reported for this molecule. Item: `C=C1C(=O)O[C@H]2[C@H]1CC/C(CNC(=O)c1c[nH]c3ccc(F)cc13)=C\CC[C@@]1(C)O[C@@H]21`
Response: yes (1)

Request: Write down the call the test reported for this molecule. Item: `O=C(Nc1ccc(Br)cc1)C1=NCCCCN1`
Response: no (0)

Request: Write down the call the test reported for this molecule. Item: `CCc1ccc(CCC(=O)Nc2ncc(Cc3cc(Cl)ccc3Cl)s2)o1`
Response: no (0)

Request: Write down the call the test reported for this molecule. Item: `NS(=O)(=O)c1ccc(-c2cc(-c3nnc(SCC(=O)Nc4ccc(C(=O)/C=C/c5ccc(Cl)cc5)cc4)n3-c3ccccc3)c3ccccc3n2)cc1`
Response: no (0)
